- Tested on: VSMC
- test.protocol: Induction of NO release in human VSMC assessed as intracellular S-nitrosothiol level at 100 uM after 1 hr by fluorimetric method
- Type: functional
quantity.kind: Activity

COc1ccc(C(=N)NO)cc1 | 0.21 µM
N/C(=N\O)c1ccc(Cl)cc1 | 0.03 µM
N/C(=N\O)c1ccc(O)cc1 | 0.2 µM

* * *

- test.protocol: Cytotoxicity against human VSMC assessed as cell viability at 100 uM after 24 hrs by MTT assay
- Assay type: cell-based
- protocol.conditions: VSMC cells, read-out: Activity
quantity.kind: viability at 24 h, 100 µM

N/C(=N\O)c1ccc(O)cc1 | 74.7%
